Molecular target: MAT2A recombinant protein (Homo sapiens)
Sequence (P31153 whole entry): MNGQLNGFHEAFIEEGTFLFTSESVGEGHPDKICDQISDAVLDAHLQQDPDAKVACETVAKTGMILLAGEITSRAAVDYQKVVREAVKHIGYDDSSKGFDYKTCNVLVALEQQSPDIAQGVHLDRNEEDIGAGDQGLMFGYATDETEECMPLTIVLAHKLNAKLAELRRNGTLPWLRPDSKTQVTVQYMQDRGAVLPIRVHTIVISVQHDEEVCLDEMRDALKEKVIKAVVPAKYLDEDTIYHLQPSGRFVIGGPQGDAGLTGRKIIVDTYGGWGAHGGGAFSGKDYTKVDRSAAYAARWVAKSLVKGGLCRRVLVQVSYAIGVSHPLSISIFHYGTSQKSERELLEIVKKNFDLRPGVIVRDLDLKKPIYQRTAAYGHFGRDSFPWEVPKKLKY
Test: MAT2A inhibitory activity (malachite green colorimetric enzyme assay)
Format: biochemical
Conditions: IC50 score class; read-out: MAT2A Inhibition (score)
PROPERTY LABEL: IC50

- Cn1cnc2c(=O)n(-c3cccc4cccnc34)c3cc(Cl)c(C#N)cc3c21 [Compound B379]: > 1000 nM
- CCn1cc2c(n1)c(=O)n(Cc1c[nH]cn1)c1cc(Cl)ccc21 [Compound B18]: 100 to 1000 nM
- Cn1cc2c(n1)c(=O)n(-c1cccnc1)c1nc(Cl)ccc21 [Compound B244]: < 100 nM
- O=c1c2nn(C(F)F)cc2c2cc(F)c(C3CC3)nc2n1-c1cccnc1C1CC1 [Compound B361]: < 100 nM
